The substances listed here are annotated with their Binding affinity.
# tgt: acetylcholine receptor (Homo sapiens, UniProt P02708)
# Sequence (P02708 21-457): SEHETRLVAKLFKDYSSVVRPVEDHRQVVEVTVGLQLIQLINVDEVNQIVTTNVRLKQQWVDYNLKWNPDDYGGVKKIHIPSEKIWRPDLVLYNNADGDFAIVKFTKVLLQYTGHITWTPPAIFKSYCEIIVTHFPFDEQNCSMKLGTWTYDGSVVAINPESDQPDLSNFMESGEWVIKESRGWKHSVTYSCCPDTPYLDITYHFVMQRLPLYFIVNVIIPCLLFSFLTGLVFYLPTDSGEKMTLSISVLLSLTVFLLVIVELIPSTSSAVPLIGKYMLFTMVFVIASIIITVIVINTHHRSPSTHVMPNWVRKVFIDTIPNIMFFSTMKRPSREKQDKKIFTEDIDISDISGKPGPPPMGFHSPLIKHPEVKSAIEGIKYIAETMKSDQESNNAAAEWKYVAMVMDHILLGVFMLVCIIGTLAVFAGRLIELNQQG
# experiment notes: SPR binding affinity (RU) of optimized 5mer/6mer/7mer peptides, Examples 6-7
# conditions used: SPR, Resonance Units; peptides tested at 10 μM; 6mer-1 Bottom sequence (Table 11)
observable: Binding affinity (Ru)

6mer-1-634 (KKNTMR) | 12
6mer-1-659 (KKPSKR) | 29
6mer-1-742 (RRFHWR) | 14
6mer-1-619 (KKIDKR) | 23
6mer-1-642 (KKYNGK) | 24
6mer-1-699 (RRTTVR) | 28
6mer-1-729 (KKKSGK) | 23
6mer-1-781 (RRHWDK) | 16
6mer-1-673 (RRAMPK) | 16
6mer-1-788 (RKIPKK) | 22
6mer-1-736 (KKATDK) | 15
6mer-1-689 (KRCPVR) | 11
6mer-1-651 (KRICWK) | 27
6mer-1-707 (KRFWPK) | 26
6mer-1-684 (KRNNDR) | 20
6mer-1-644 (RKTWFR) | 31
6mer-1-678 (KRMAAK) | 25
6mer-1-695 (KRADVK) | 13
6mer-1-692 (RKNTHK) | 22
6mer-1-671 (KKNMVR) | 11
6mer-1-606 (RREWFR) | 15
6mer-1-667 (KRDSPK) | 32
6mer-1-795 (KKCHMR) | 12
6mer-1-612 (KRIMER) | 17
6mer-1-700 (RKKMWK) | 19
6mer-1-679 (KKAEER) | 30
6mer-1-764 (RRNPFK) | 24
6mer-1-779 (RRPDAR) | 30
6mer-1-717 (KRHEDR) | 22
6mer-1-691 (RKPKAR) | 31
6mer-1-646 (RRCTGK) | 33
6mer-1-726 (KKHSMK) | 33
6mer-1-656 (RRPTHK) | 28
6mer-1-627 (RRTWWR) | 29
6mer-1-602 (RKAEKR) | 18

====

The substances listed here are annotated with their Binding affinity.
# tgt: acetylcholine receptor (Homo sapiens)
# experiment notes: SPR binding affinity (RU) of optimized 5mer/6mer/7mer peptides, Examples 6-7
# conditions used: SPR, peptides at 10 μM; 6mer-2 Bottom sequence
observable: Binding affinity

6mer-2-1104 (RYTKKR) | 38 Ru
6mer-2-1134 (KYENRK) | 30 Ru
6mer-2-1045 (RHAHRR) | 41 Ru
6mer-2-1000 (KCHDKK) | 41 Ru
6mer-2-1150 (KTDVKK) | 42 Ru
6mer-2-1075 (RHMERK) | 31 Ru
6mer-2-1062 (KYNIRK) | 35 Ru
6mer-2-1122 (RCNFKK) | 22 Ru
6mer-2-1005 (RFKARR) | 23 Ru
6mer-2-1102 (KHKGKR) | 32 Ru
6mer-2-1119 (KCTVRK) | 39 Ru
6mer-2-1164 (RYNHKR) | 33 Ru
6mer-2-1094 (KAWERK) | 43 Ru
6mer-2-1130 (RHSFRK) | 29 Ru
6mer-2-1161 (RHSFKK) | 27 Ru
6mer-2-1123 (RITARR) | 36 Ru

====

# tgt: acetylcholine receptor (Homo sapiens, UniProt P02708)
# experiment notes: SPR binding affinity (RU) of optimized 5mer/6mer/7mer peptides, Examples 6-7
# conditions used: SPR, Resonance Units; peptides tested at 10 μM; 6mer-2 Bottom sequence
observable: Binding affinity

6mer-2-889 (REWDKK) | 12 Ru
6mer-2-629 (RFCWKK) | 32 Ru
6mer-2-699 (KNAGKR) | 23 Ru
6mer-2-983 (RTWHRR) | 37 Ru
6mer-2-633 (KYAVKR) | 17 Ru
6mer-2-669 (KNMWRK) | 15 Ru
6mer-2-733 (RTPARK) | 29 Ru
6mer-2-682 (RNMERR) | 33 Ru
6mer-2-960 (RDCVKR) | 29 Ru
6mer-2-894 (RFHWRR) | 22 Ru
6mer-2-849 (RNTAKK) | 13 Ru
6mer-2-959 (RTNARK) | 35 Ru
6mer-2-702 (KEMIKR) | 18 Ru
6mer-2-714 (KIDVRK) | 30 Ru
6mer-2-717 (KCPGKR) | 15 Ru
6mer-2-826 (RNTPRK) | 11 Ru
6mer-2-670 (RKWHKR) | 33 Ru
6mer-2-989 (KAHNKR) | 22 Ru
6mer-2-812 (KPPEKR) | 33 Ru
6mer-2-841 (KPNHRK) | 33 Ru
6mer-2-723 (KEDMKR) | 23 Ru
6mer-2-832 (KYHNRR) | 32 Ru
6mer-2-605 (KNCGKK) | 17 Ru
6mer-2-901 (RYWDRK) | 34 Ru
6mer-2-668 (RFCNKK) | 13 Ru
6mer-2-706 (KFTDRK) | 23 Ru
6mer-2-925 (RASVKR) | 23 Ru
6mer-2-887 (RCPKKR) | 18 Ru
6mer-2-954 (KCTIRK) | 32 Ru
6mer-2-740 (KIDIRR) | 12 Ru
6mer-2-637 (RPPVRK) | 32 Ru
6mer-2-809 (REPWRR) | 18 Ru
6mer-2-651 (KNADRR) | 21 Ru
6mer-2-860 (KPNFRR) | 31 Ru
6mer-2-785 (RHCHRR) | 31 Ru

====

# tgt: acetylcholine receptor (Homo sapiens, UniProt P02708)
# experiment notes: SPR binding affinity (RU) of optimized 5mer/6mer/7mer peptides, Examples 6-7
# conditions used: SPR, peptides tested at 10 μM; 6mer-1 Top sequence
observable: Binding affinity (Ru)

6mer-1-586 (KRVICK) | 136
6mer-1-501 (KRVLYK) | 154
6mer-1-1405 (KKVQTR) | 148
6mer-1-529 (RRSLCK) | 139
6mer-1-444 (KKWILK) | 144
6mer-1-517 (KKGLCK) | 139
6mer-1-408 (KRGRSR) | 147
6mer-1-448 (RKRFSR) | 141
6mer-1-550 (RRLICR) | 148
6mer-1-508 (RRQFSK) | 135
6mer-1-436 (KKLFYK) | 148
6mer-1-577 (KKQYQR) | 128
6mer-1-500 (RKLQSK) | 151
6mer-1-560 (RRSFSK) | 127
6mer-1-429 (RRQRRK) | 135
6mer-1-443 (RKVLLK) | 145

====

The substances listed here are annotated with their Binding affinity.
# tgt: acetylcholine receptor (Homo sapiens, UniProt P02708)
# experiment notes: SPR binding affinity (RU) of optimized 5mer/6mer/7mer peptides, Examples 6-7
# conditions used: 6mer-2 Top sequence; SPR; peptides tested at 10 μM
observable: Binding affinity (Ru)

6mer-2-19 (RSFSKK) | 135
6mer-2-11 (RQYQRR) | 121
6mer-2-191 (RQLLKR) | 154
6mer-2-47 (KLQSRR) | 148
6mer-2-132 (KLYCKK) | 139
6mer-2-115 (KWQYRK) | 144
6mer-2-1 (RRRLKK) | 131
6mer-2-69 (KWFLRK) | 139
6mer-2-126 (KWLYRR) | 148
6mer-2-32 (RRLCRK) | 139
6mer-2-142 (RWVLRR) | 121
6mer-2-86 (KQFRRK) | 126
6mer-2-131 (KQQTKR) | 148
6mer-2-65 (KGVCKR) | 148
6mer-2-26 (RWRRKK) | 121
6mer-2-122 (RVITKK) | 125
6mer-2-139 (KLFRKK) | 149

====

The substances listed here are annotated with their Binding affinity.
# tgt: acetylcholine receptor (Homo sapiens)
# experiment notes: SPR binding affinity (RU) of optimized 5mer/6mer/7mer peptides, Examples 6-7
# conditions used: SPR, peptides tested at 10 μM; 6mer-1 Bottom sequence (Table 11)
observable: Binding affinity (Ru)

6mer-1-840 (RKICNK) | 12
6mer-1-912 (KKETFR) | 33
6mer-1-804 (KRDPFR) | 31
6mer-1-880 (KRPMDK) | 21
6mer-1-939 (KRNDFK) | 41
6mer-1-814 (KKCNAK) | 15
6mer-1-851 (RRYMEK) | 30
6mer-1-822 (KREPIK) | 17
6mer-1-975 (RKASIK) | 22
6mer-1-829 (RRIHKK) | 25
6mer-1-885 (RRKTPR) | 17
6mer-1-932 (KRFEFK) | 38
6mer-1-872 (KRPCHR) | 23
6mer-1-936 (RKETDR) | 36
6mer-1-878 (RRKDNR) | 27
6mer-1-856 (KRMWFK) | 30

====

The substances listed here are annotated with their Binding affinity.
# tgt: acetylcholine receptor (Homo sapiens, UniProt P02708)
# experiment notes: SPR binding affinity (RU) of optimized 5mer/6mer/7mer peptides, Examples 6-7
# conditions used: SPR, Resonance Units; peptides tested at 10 μM; 6mer-2 Top sequence (Table 12)
# Description: Based on the frequencies of occurrence of the top 7 amino acids from Table 7 in Example 5, 600 peptides comprising these amino acids (top combinations) and those comprising the 13 less frequently occurring amino acids (bottom combinations) were synthesized for each series of 5mer, 6mer-1, and 6mer-2. The binding affinity of each sequence for the acetylcholine receptor was measured using Surface Plasmon Resonance (SPR) analysis method. The peptides were tested at a concentration of 10 μM. […]
observable: Binding affinity (Ru)

6mer-2-337 (KQFQKK) | 142
6mer-2-384 (RSFQKK) | 142
6mer-2-291 (RRYRKR) | 154
6mer-2-379 (RGVQKR) | 127
6mer-2-212 (KWQLRR) | 148
6mer-2-368 (RLRTRR) | 142
6mer-2-250 (KRRRKK) | 145
6mer-2-388 (KRFQKK) | 139
6mer-2-207 (KWVSKR) | 153
6mer-2-230 (RWIQRR) | 135
6mer-2-377 (RRYCRR) | 142
6mer-2-255 (RLRRKK) | 139
6mer-2-247 (KGYQKK) | 146
6mer-2-263 (RRICKR) | 145
6mer-2-253 (KLRSRR) | 145
6mer-2-311 (KVVTRK) | 147
6mer-2-381 (KVYRRR) | 139
6mer-2-327 (KGLRKR) | 153
6mer-2-297 (RSLSRR) | 139
6mer-2-330 (KQLRKK) | 139
6mer-2-298 (KWICKK) | 149
6mer-2-214 (RWRSRK) | 139
6mer-2-240 (RRRCRK) | 142
6mer-2-220 (KVYSKR) | 135
6mer-2-345 (KSRQKK) | 148
6mer-2-280 (KSIYRR) | 153
6mer-2-357 (RGQRKK) | 151
6mer-2-211 (RGLSRR) | 135
6mer-2-349 (RRLSRR) | 137
6mer-2-303 (KVFTKR) | 126
6mer-2-352 (RWFYRR) | 137
6mer-2-343 (KQISKK) | 146
6mer-2-331 (RWVSKK) | 148
6mer-2-313 (RWRTKR) | 154
6mer-2-281 (KGQRKK) | 149
6mer-2-259 (RVQSKR) | 128
6mer-2-258 (KRIYRR) | 125
6mer-2-234 (RSQTKR) | 142
6mer-2-292 (RQLCKR) | 121
6mer-2-389 (KSLYKK) | 153
6mer-2-355 (RGIRKK) | 124
6mer-2-354 (RWISKK) | 135
6mer-2-328 (KRYQRK) | 131
6mer-2-396 (KWLQRR) | 122
6mer-2-241 (KQLTKR) | 135
6mer-2-208 (RSQQRK) | 128
6mer-2-386 (KWQSKR) | 136
6mer-2-365 (RWRYRR) | 121
6mer-2-321 (KLVSRK) | 139
6mer-2-306 (RQFQKR) | 141
6mer-2-210 (RSQSRR) | 128
6mer-2-278 (RQIQKK) | 135
6mer-2-252 (KVFRKK) | 148
6mer-2-289 (RLLQKK) | 146
6mer-2-314 (KQYCKK) | 127
6mer-2-394 (KLVLKR) | 141
6mer-2-238 (RRRRRK) | 142
6mer-2-293 (KQQSKR) | 153
6mer-2-387 (KWLCKK) | 146
6mer-2-302 (KQICKK) | 148
6mer-2-283 (KLISKR) | 148
6mer-2-323 (KVLLRK) | 145
6mer-2-237 (RLVYKR) | 123
6mer-2-251 (KSQTKR) | 142
6mer-2-288 (KSRLRK) | 122
6mer-2-268 (RQICKK) | 139
6mer-2-300 (RWRLKK) | 153
6mer-2-315 (RRQRRR) | 139
6mer-2-353 (RLQTKK) | 137
